I'd appreciate it if you could supply IC50 values for the items below.
TEST SYSTEM: HEK293 cells expressing NR1/NR2B (Homo sapiens (Human), UniProt Q05586+Q13224)
Sequence (Q13224 27-1484, other chains not shown): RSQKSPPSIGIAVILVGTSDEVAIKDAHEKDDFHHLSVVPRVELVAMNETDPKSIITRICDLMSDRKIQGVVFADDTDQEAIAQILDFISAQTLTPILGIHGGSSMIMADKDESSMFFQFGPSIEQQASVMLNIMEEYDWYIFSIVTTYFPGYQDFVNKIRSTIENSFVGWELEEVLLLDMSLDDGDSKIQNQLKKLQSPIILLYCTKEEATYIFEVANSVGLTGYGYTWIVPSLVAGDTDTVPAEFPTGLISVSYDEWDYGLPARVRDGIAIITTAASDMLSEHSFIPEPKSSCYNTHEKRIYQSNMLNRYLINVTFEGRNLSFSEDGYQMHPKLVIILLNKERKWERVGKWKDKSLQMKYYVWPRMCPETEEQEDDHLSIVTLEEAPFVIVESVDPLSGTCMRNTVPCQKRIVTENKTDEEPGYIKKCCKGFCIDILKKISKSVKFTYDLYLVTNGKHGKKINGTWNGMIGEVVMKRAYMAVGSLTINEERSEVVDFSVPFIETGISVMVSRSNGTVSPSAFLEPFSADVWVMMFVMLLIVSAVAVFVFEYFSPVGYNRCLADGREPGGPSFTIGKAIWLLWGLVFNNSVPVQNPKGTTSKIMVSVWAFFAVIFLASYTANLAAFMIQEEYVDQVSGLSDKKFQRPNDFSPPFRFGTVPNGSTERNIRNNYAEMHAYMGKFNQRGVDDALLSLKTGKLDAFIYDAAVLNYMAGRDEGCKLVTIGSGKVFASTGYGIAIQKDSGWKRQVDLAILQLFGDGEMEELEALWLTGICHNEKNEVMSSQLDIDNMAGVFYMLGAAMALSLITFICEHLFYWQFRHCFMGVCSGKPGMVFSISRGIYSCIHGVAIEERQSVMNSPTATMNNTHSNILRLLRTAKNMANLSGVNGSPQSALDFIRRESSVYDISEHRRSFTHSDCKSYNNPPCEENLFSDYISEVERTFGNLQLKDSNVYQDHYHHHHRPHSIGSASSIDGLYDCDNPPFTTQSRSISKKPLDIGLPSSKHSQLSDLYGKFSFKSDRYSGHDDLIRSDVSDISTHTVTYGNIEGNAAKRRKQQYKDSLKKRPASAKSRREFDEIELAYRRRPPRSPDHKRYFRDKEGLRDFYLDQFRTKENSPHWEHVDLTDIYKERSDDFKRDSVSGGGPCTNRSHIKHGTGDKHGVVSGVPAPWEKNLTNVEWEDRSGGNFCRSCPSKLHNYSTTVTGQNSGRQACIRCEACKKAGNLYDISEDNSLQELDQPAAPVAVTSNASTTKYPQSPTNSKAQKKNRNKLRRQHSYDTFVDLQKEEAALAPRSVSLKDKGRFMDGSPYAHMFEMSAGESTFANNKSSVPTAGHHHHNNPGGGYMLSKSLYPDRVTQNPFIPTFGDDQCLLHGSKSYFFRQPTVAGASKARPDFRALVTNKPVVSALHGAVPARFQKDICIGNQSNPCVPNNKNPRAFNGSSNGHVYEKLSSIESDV
ASSAY PROCEDURE: NR2B NAM Assay (FDSS Ca2+ influx cell assay)
CONDITION DETAILS: NR2B NAM assay, class of inhibitory concentration; read-out: Activity Category

- MOLECULE: "Oc1ccc(C(O)CN2C[C@H]3C[C@H](Oc4cccnc4)C[C@H]3C2)cc1 (stereo partly shown)"
  TEST SYSTEM: "HEK293 cells expressing NR1/NR2B (Homo sapiens (Human), UniProt Q05586+Q13224)"
  IC50: "< 100 nM"
- MOLECULE: "N#Cc1ccc(O[C@H]2C[C@@H]3CN(CC(O)c4ccc(O)c(F)n4)C[C@@H]3C2)cc1 (stereo partly shown)"
  TEST SYSTEM: "HEK293 cells expressing NR1/NR2B (Homo sapiens (Human), UniProt Q05586+Q13224)"
  IC50: "100 to 1000 nM"
- MOLECULE: "COc1ccc(O[C@H]2C[C@@H]3CN(CC(=O)c4ccc(O)c(OC)n4)C[C@@H]3C2)cc1"
  TEST SYSTEM: "HEK293 cells expressing NR1/NR2B (Homo sapiens (Human), UniProt Q05586+Q13224)"
  IC50: "> 10000 nM"

Ask | Which IC50 reading was recorded for the molecule O=C(CN1C[C@H]2C[C@H](Oc3cccnc3F)C[C@H]2C1)c1ccc(O)c(F)c1 ?
Reply | > 10000 nM

---

TEST SYSTEM: HEK293 cells expressing NR1/NR2B (Homo sapiens (Human), UniProt Q05586+Q13224)
ASSAY PROCEDURE: NR2B NAM Assay (FDSS Ca2+ influx cell assay)
CONDITION DETAILS: NR2B NAM assay, class of inhibitory concentration; read-out: Activity Category
QUANTITY: IC50

- COMPOUND: "Cc1cccc(O[C@H]2C[C@@H]3CN(CC(=O)c4ccc(O)cn4)C[C@@H]3C2)c1F"
  IC50: "100 to 1000 nM"
- COMPOUND: "COc1ncccc1O[C@H]1C[C@@H]2CN(CC(=O)c3ccc(O)cc3)C[C@@H]2C1"
  IC50: "> 10000 nM"
- COMPOUND: "O=C(CN1C[C@H]2C[C@H](S(=O)(=O)c3ccccc3)C[C@H]2C1)c1ccc(O)c(F)c1"
  IC50: "> 10000 nM"
- COMPOUND: "COc1ccc(S[C@H]2C[C@@H]3CN(CC(O)c4ccc(O)cc4)C[C@@H]3C2)cc1 (some centres unmarked)"
  IC50: "100 to 1000 nM"
- COMPOUND: "O=C(CN1C[C@H]2C[C@H](Oc3ccc(F)cc3)C[C@H]2C1)c1ccc(O)cn1"
  IC50: "100 to 1000 nM"
- COMPOUND: "Oc1ccc(C(O)CN2C[C@H]3C[C@H](Oc4ccc(F)nc4)C[C@H]3C2)nc1 (some centres unmarked)"
  IC50: "100 to 1000 nM"
- COMPOUND: "Cc1cccc(O[C@H]2C[C@@H]3CN(CC(O)c4ccc(O)cn4)C[C@@H]3C2)c1F (some centres unmarked)"
  IC50: "< 100 nM"

Now take the following compound into account.
Ask | Could you share what IC50 was measured for O=C(CN1C[C@H]2C[C@@H](Oc3cccnc3)C[C@H]2C1)c1ccc(O)cc1 , tested on HEK293 cells expressing NR1/NR2B (Homo sapiens (Human), UniProt Q05586+Q13224)?
Reply | 1000 to 10000 nM
